subject_of_test: UniProt:Q14994
Sequence (Q14994 1-348 isoform Q14994-2): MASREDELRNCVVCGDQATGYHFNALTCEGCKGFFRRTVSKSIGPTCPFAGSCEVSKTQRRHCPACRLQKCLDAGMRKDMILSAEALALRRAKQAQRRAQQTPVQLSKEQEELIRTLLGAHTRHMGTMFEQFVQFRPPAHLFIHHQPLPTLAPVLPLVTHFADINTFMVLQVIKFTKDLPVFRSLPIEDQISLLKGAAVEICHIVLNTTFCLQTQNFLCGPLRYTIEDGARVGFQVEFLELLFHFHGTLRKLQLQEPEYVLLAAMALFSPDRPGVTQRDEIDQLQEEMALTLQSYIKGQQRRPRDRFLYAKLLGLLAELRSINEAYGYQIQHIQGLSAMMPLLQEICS
assay_name: hCAR luciferase reporter qHTS, agonist mode (HepG2-CYP2B6-hCAR cells, PK11195 co-treatment)
particulars: Primary Screen Potency (EC50), agonist mode, primary qHTS, 2.5 μM PK11195, 24 h
readout_kind: EC50

Solved cases below.
| compound | assay_value |
| --- | --- |
| CC(C)=CCOc1c2occc2cc2ccc(=O)oc12 [Imperatorin] | 10.7 µM |
| CCO[C@H]1O[C@@H]2O[C@@]3(C)CC[C@H]4[C@H](C)CC[C@@H]([C@H]1C)[C@@]24OO3 [Artemotil] | 2.1 µM |
| CCCCNc1c(C(=O)OCC)c(C)nc2c1cnn2CC [Tracazolate] | 17 µM |

Next up:
Return value of EC50 for input O=c1cc(-c2ccccc2)oc2ccccc12 [Flavone] , no commentary. 34 µM

Values were extracted from paper PMC4438668.
